Target: T1, PF4/heparin complex (human PF4 complexed with heparin) (human, UniProt P02776 32-101)
T1 sequence: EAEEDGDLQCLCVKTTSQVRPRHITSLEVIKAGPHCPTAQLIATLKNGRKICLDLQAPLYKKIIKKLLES
Test: cell-based or functional assay
valueType: % inhibition of 14C-serotonin release (SRA), HIT-Positive Patient #5 serum, scFv 75 µg/mL (%)
Write the value in % as a bare number.

What the record says about Mutant B scFv, scFv(R18K, N152K, D180N) (scFv, VL-linker-VH; histidine-tagged, from E. coli BL21; also called Mut B; not shown: histidine tag from the pADL-22c vector) scFv: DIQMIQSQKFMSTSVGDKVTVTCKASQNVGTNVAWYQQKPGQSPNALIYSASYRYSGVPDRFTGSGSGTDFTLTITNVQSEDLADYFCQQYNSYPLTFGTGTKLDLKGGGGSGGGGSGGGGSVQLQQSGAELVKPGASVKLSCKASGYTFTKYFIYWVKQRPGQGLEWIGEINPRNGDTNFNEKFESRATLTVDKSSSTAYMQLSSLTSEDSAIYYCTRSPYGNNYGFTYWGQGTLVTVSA : % inhibition of 14C-serotonin release (SRA), HIT-Positive Patient #5 serum, scFv 75 µg/mL is 80.6

Measured values drawn from patent US20250011413A1 for this set.
